Where do these numbers come from? They come from ChEMBL document CHEMBL1138003.

Measured IC50 values are reported for all entries that follow.
target: C-C chemokine receptor type 2 (Homo sapiens, UniProt P41597); test: Concentration required to inhibit [125I]MCP-1 (Monocyte Chemoattractant Protein-1) binding to THP-1 cell; assay type: cell-based
Sequence (P41597 whole entry): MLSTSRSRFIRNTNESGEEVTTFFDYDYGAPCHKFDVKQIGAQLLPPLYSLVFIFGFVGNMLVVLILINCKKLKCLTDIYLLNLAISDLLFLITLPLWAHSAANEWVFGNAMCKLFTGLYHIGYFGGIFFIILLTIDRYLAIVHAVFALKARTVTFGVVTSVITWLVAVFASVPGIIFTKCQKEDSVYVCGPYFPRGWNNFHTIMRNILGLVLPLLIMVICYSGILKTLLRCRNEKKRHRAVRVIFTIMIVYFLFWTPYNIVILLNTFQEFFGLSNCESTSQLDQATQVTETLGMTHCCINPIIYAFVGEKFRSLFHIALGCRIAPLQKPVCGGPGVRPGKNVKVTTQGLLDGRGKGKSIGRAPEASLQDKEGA
Return type: number; implicit unit µM.

Reference set (7 entries):
- CS(=O)(=O)c1ccc(CN2CCCN(CCC(O)(c3ccc(Cl)cc3)c3ccc(Cl)cc3)CC2)cc1: 11
- O=C(CN1CCCN(CCC(O)(c2ccccc2)c2cccc(O)c2)CC1)NNC(=O)c1cccs1 (centres undefined): 28
- c1ccc(C(CCN2CCCN(Cc3ccncc3)CC2)c2ccccc2)cc1: 11
- CS(=O)(=O)c1ccc(CN2CCCN(CCC(O)(c3cccc(O)c3)c3cccc(F)c3)CC2)cc1 (centres undefined): 2.4
- N#Cc1ccc(CN2CCCN(CCC(c3ccccc3)c3ccccc3)CC2)cc1: 43
- O=C(CN1CCCN(Cc2ccc(Cl)cc2)CC1)NNC(=O)c1cccs1: 30
- CS(=O)(=O)c1ccc(CN2CCCN(CCC(O)(c3cccc(F)c3)c3cccc(F)c3)CC2)cc1: 34

Would you kindly look at the next entry?
-- ask What value of measured IC50 is listed for CS(=O)(=O)c1ccc(CN2CCCN(CCC(O)(c3ccccc3)c3cccc(N)c3)CC2)cc1 (centres undefined) ?
-- reply 4.2
